B1: library; a variant is named by its letters at N, in order (parent)
chain: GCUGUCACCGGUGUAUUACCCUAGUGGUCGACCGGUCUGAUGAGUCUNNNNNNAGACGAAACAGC

variants of: B1; assay: normalized RNA/DNA level without ligand (relative to sTRSVctl = 100) (log10 (% of sTRSVctl)); ligand: hypoxanthine (xanthine aptamer); higher = less ribozyme self-cleavage, higher mRNA level; conditions: HEK293T, reporter: mCherry (pCS4076), ligand present: no
endpoint.label: normalized RNA/DNA level without ligand (log10)
// return just the number, without any unit appended

Solved cases (3 shown):
[[record]]
change = "CGCGAA"
measurement = 1.7

[[record]]
change = "GCAUUA"
measurement = 1.88

[[record]]
change = "GAUAAA"
measurement = 1.76


Report normalized RNA/DNA level without ligand (log10) for `UUUUCC` please.
1.93

Then `CUACGC` ?
1.91

Then `CUGCCG` ?
1.8

Then `UAUUCC` ?
1.85

Then `UGUCAC` ?
1.89

Then `AGCUGU` ?
1.75

Then `CGCCAG` ?
1.84

Then `UUCACC` ?
2

Then `AAACAA` ?
1.73

Then `UACGUG` ?
1.6

Then `GUUAGG` ?
1.38

Then `UAAAAC` ?
1.83

Then `UAUCUC` ?
1.99

Then `CUCCUA` ?
1.87

Then `CUACCA` ?
1.82

Then `AGGCGU` ?
1.67

Then `CAUCCG` ?
1.91

Then `UUGUUA` ?
2.01

Then `UGAAAA` ?
1.84

Entry source: the supplement of paper PMC6757056
